Test system: UO-31
experiment.description: NCI tumour cell line growth inhibition, 48 h
The source made the active and inactive calls. Rule as the data show it: active = GI50 up to about 1.1 µM and inactive = higher. *1 amine or outer side, *2 acyl side, *3 side chain or, on linkers, in order; H or OH if unused. Where a SMILES comes first, the peptide text is derived from it. Bridges are numbered along the chain shown (N, C = ends). [ ]: non-standard residue; d: D form. ξ: configuration not given here. X10 = CCC(C)C(N[*:1])C(O)CC(=O)O[C@H](C(=O)C(C)C(=O)[*:2])C(C)C; NMeY = CN[C@@H](Cc1ccc(O)cc1)C(=O)O; ξNMeL = CNC(CC(C)C)C(=O)O; ξT = CC(O)C(N)C(=O)O
Mark one answer only. Choices: Y for active, N for inactive

As a guide, the following entries are already answered.
# compound, assayed.system, class
records = [
    ("COc1ccc(/C=C2/C(=O)N(C(=O)c3ccccc3O)N=C2C)cc1OC", "UO-31", "Y"),
    ("CN(C)c1ccc(N2C(=S)SC(=N\\c3ccccc3)/C2=N/c2ccccc2)cc1", "UO-31", "N"),
    ("Cc1ccc(C)c(N2C(=O)C(=O)C(c3nc4ccccc4s3)C(=O)C2=O)c1", "UO-31", "N"),
    ("COc1ccc(-n2c(C)nc3ccc(NC4OCC(OC(C)=O)C(OC(C)=O)C4OC(C)=O)cc3c2=O)cc1 (centres undefined)", "UO-31", "N"),
    ("COc1ccc(OC)c2sc(N3C(=O)/C(=C/c4ccccc4S)N=C3c3ccccc3)nc12", "UO-31", "N"),
    ("CSc1nc(-c2ccccc2)nc(N2CCOCC2)[s+]1", "UO-31", "N"),
    ("CC1(C)OC(COCCOCCCCCO)C(COCCOCCCCCO)O1 (centres undefined)", "UO-31", "N"),
    ("Clc1ccc(Cl)c(Nc2ccnc(SCc3ccccc3)n2)c1", "UO-31", "N"),
]

Q: Give the logged outcome of this assay for the following compound: O=C(O)CCC(NC(=O)c1ccc(Nc2cnc3ccc(C(F)(F)F)cc3n2)cc1)C(=O)O (centres undefined)
A: N

Q: Give the logged outcome of this assay for the following compound: CCOC(=O)C1=C(C)N(C)C(=S)NC1c1cccc(O)c1 (centres undefined)
A: N

Q: Give the logged outcome of this assay for the following compound: CC(C(=O)N1C(=O)N(C(=O)C(C)C(O)c2ccccc2)C2CCCCC21)C(O)c1ccccc1 (centres undefined)
A: N

Q: Give the logged outcome of this assay for the following compound: [N-]=[N+]=Nc1c(Cl)c(=O)n(-c2ccccc2)c2ccccc12
A: N

Q: Give the logged outcome of this assay for the following compound: CCCCCCCCCCCCOC1C(COCCN2CCCC2)OC2OC(C)(C)OC21 (centres undefined)
A: N

Q: Give the logged outcome of this assay for the following compound: CCC(C)C1NC(=O)C(NC(=O)C(CC(C)C)N(C)C(=O)[C@@H]2CCCN2)C(C)OC(=O)[C@H](Cc2ccc(OC)cc2)N(C)C(=O)[C@@H]2CCCN2C(=O)[C@H](CC(C)C)NC(=O)C(C)C(=O)[C@H](C(C)C)OC(=O)CC1O (some centres undefined) (H-P[ξNMeL][ξT][X10]LP[NMeY](Me); ester 3-C)
A: Y

Q: Give the logged outcome of this assay for the following compound: COc1ccc(OC)c(N2C(=O)CSC2c2cc(OC)c(OC)c(OC)c2)c1 (centres undefined)
A: N

Q: Give the logged outcome of this assay for the following compound: CCNC(=S)NNC(=O)CSc1nc2ccc(I)cc2c(=O)n1Cc1ccccc1
A: Y

Q: Give the logged outcome of this assay for the following compound: O=c1c(-c2ccccc2)c(SCCO)n(-c2ccccc2)c(=S)n1-c1ccccc1
A: N

Q: Give the logged outcome of this assay for the following compound: COc1ccc(NC(=O)NS(=O)(=O)c2ccc(C)cc2)nn1
A: N

Q: Give the logged outcome of this assay for the following compound: CC(C)c1ccccc1SCc1cc(=O)cc(CSc2ccccc2C(C)C)o1
A: N
